This collection of values is drawn from patent US20240317777A1.

Listed compounds paired with reported pIC50
# targetSystem: CDK6-CYCLIN D3 (Homo sapiens, UniProt Q00534)
# Sequence (Q00534 whole entry): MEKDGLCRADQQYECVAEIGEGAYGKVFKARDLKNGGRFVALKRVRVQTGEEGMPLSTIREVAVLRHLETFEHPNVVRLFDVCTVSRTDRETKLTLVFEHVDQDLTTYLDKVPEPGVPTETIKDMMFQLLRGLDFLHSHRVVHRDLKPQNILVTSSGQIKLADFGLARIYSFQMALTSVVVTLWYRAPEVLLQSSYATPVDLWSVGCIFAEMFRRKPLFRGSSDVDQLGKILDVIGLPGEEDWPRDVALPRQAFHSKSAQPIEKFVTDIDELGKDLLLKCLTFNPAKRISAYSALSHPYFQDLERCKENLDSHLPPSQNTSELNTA
# Sequence (P30281 whole entry partner): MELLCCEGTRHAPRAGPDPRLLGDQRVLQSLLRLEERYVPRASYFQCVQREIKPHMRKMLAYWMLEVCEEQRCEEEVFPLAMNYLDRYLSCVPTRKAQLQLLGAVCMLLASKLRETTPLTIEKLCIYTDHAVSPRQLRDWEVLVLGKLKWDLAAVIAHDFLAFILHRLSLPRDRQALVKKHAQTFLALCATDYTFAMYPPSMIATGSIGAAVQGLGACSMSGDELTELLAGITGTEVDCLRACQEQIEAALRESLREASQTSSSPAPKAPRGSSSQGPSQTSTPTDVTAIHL
# assayExplanation: CDK protein kinase inhibition by ADP-Glo assay, CDK6-CYCLIN D3
# Type: biochemical
# recordedConditions: ADP-Glo, 1000 μM ATP; Table 19; read-out: CDK6-CYCLIND3, IC50
pIC50: −log10 of the molar value.

Here is how some compounds turned out for pIC50.
> print(dat)
                                   compound        result
1  C[C@H]1CCCCc2cc(ccn2)Nc2cc(n[nH]2)[C@H]2CC[C@H](C2)OC(=O)N1 [Compound 114]  6.30 to 7.00
2  C[C@@H]1CC/C=C/c2cc(ccn2)Nc2cc(n[nH]2)[C@H]2CC[C@H](C2)OC(=O)N1 [Compound 126]  6.30 to 7.00
3  O=C1NCCCCC(F)(F)c2cc(ccn2)Nc2cc([nH]n2)[C@H]2CC[C@H](C2)O1 [Compound 64]  7.30 to 8.00
4  O=C1N[C@H]2C[C@H](CCc3cc(ccn3)Nc3cc(n[nH]3)[C@H]3CC[C@H](C3)O1)C2 [compound 140]  7.00 to 7.30
5  C[C@@H]1CCC#Cc2cc(ccn2)Nc2cc(n[nH]2)[C@H]2CC[C@H](C2)OC(=O)N1 [Compound 137]        < 6.30

Req: Please tell me: pIC50 of C[C@@H]1CCCCc2cc(ccn2)Nc2cc(n[nH]2)[C@H]2CC[C@H](C2)OC(=O)N1 [Compound 115] , system CDK6-CYCLIN D3 (Homo sapiens, UniProt Q00534)?
Resp: 7.30 to 8.00

Req: Please tell me: pIC50 of C[C@H]1CC/C=C/c2cc(ccn2)Nc2cc(n[nH]2)[C@H]2CC[C@H](C2)OC(=O)N1 [Compound 125] , system CDK6-CYCLIN D3 (Homo sapiens, UniProt Q00534)?
Resp: 6.30 to 7.00
